# System: Mus musculus
# ASSAY: Hypoglycemic activity in normal ddY mouse at 5 mg/kg, ip assessed as blood glucose level per 100 mL blood after 4 hrs
# Assay type: functional
# ASSAY CONTEXT: route intraperitoneal

MOLECULE: COc1ccc(/C=C/C(=O)O[C@@H]2[C@H](O[C@@H]3O[C@@H](C)[C@H](O)[C@@H](O)[C@H]3O)[C@@H](O[C@@H]3O[C@@H](C)[C@H](O[C@@H]4OC[C@@H](O[C@@H]5O[C@H](CO)[C@H](O)[C@H](O)[C@H]5O)[C@H](O)[C@H]4O)[C@@H](O)[C@H]3O)[C@H](OC(=O)[C@]34CCC(C)(C)C[C@@H]3C3=CC[C@@H]5[C@@]6(C)C[C@H](O[C@@H]7O[C@H](CO)[C@@H](O)[C@H](O)[C@H]7O)[C@H](O)[C@@](C)(C(=O)O)[C@@H]6CC[C@@]5(C)[C@]3(CO)CC4)O[C@@H]2C)cc1 [SENEGIN III]
Activity (mg/dL): 151
